These data points were gathered from ChEMBL document CHEMBL2046311.

assay: Selectivity index, ratio of CC50 for human HepG2(2.2.15) cells to IC50 for Hepatitis B virus infected in human HepG2(2.2.15) cells assessed as inhibition of viral DNA replication; assay type: functional
Listed here: items and their measured Ratio CC50/IC50.

>  <ITEM_SMILES>
CCOc1ccccc1/C=C/C(=O)O[C@H]1CC[C@@]2(C)C(=CC[C@]3(O)[C@@H]2C[C@@H](OC(=O)/C=C(\C)C(C)C)[C@@]2(C)[C@]3(O)CC[C@@]2(O)C(C)=O)C1

>  <Ratio CC50/IC50>
>143.8

$$$$
>  <ITEM_SMILES>
CC(=O)[C@]1(O)CC[C@@]2(O)[C@]1(C)[C@H](OC(=O)/C=C(\C)C(C)C)C[C@@H]1[C@@]3(C)CC[C@H](OC(=O)/C=C/c4cccc([N+](=O)[O-])c4)CC3=CC[C@]12O

>  <Ratio CC50/IC50>
>28.1

$$$$
>  <ITEM_SMILES>
CC(=O)[C@]1(O)CC[C@@]2(O)[C@]1(C)[C@H](OC(=O)/C=C(\C)C(C)C)C[C@@H]1[C@@]3(C)CC[C@H](OC(=O)/C=C/c4cccc(C)c4)CC3=CC[C@]12O

>  <Ratio CC50/IC50>
>192.6

$$$$
>  <ITEM_SMILES>
COc1ccc(/C=C/C(=O)O[C@H]2CC[C@@]3(C)C(=CC[C@]4(O)[C@@H]3C[C@@H](OC(=O)/C=C(\C)C(C)C)[C@@]3(C)[C@]4(O)CC[C@@]3(O)C(C)=O)C2)c(OC)c1OC

>  <Ratio CC50/IC50>
>73.5

$$$$
>  <ITEM_SMILES>
CC(=O)[C@]1(O)CC[C@@]2(O)[C@]1(C)[C@H](OC(=O)/C=C(\C)C(C)C)C[C@@H]1[C@@]3(C)CC[C@H](OC(=O)/C=C/c4ccc(Cl)cc4Cl)CC3=CC[C@]12O

>  <Ratio CC50/IC50>
>130.3

$$$$
>  <ITEM_SMILES>
CC(=O)[C@]1(O)CC[C@@]2(O)[C@]1(C)[C@H](OC(=O)/C=C(\C)C(C)C)C[C@@H]1[C@@]3(C)CC[C@H](OC(=O)/C=C/c4cccc(OC(F)(F)F)c4)CC3=CC[C@]12O

>  <Ratio CC50/IC50>
102.3

$$$$
>  <ITEM_SMILES>
CC(=O)[C@]1(O)CC[C@@]2(O)[C@]1(C)[C@H](OC(=O)/C=C(\C)C(C)C)C[C@@H]1[C@@]3(C)CC[C@H](OC(=O)/C=C/c4ccccc4C)CC3=CC[C@]12O

>  <Ratio CC50/IC50>
190.4

$$$$
>  <ITEM_SMILES>
CC(=O)Oc1ccc(/C=C/C(=O)O[C@H]2CC[C@@]3(C)C(=CC[C@]4(O)[C@@H]3C[C@@H](OC(=O)/C=C(\C)C(C)C)[C@@]3(C)[C@]4(O)CC[C@@]3(O)C(C)=O)C2)cc1

>  <Ratio CC50/IC50>
<2

$$$$
>  <ITEM_SMILES>
CC(=O)[C@]1(O)CC[C@@]2(O)[C@]1(C)[C@H](OC(=O)/C=C(\C)C(C)C)C[C@@H]1[C@@]3(C)CC[C@H](OC(=O)/C=C/c4ccccc4[N+](=O)[O-])CC3=CC[C@]12O

>  <Ratio CC50/IC50>
>71.4

$$$$
>  <ITEM_SMILES>
CC(=O)[C@]1(O)CC[C@@]2(O)[C@]1(C)[C@H](OC(=O)/C=C(\C)C(C)C)C[C@@H]1[C@@]3(C)CC[C@H](OC(=O)/C=C/c4ccc(F)cc4)CC3=CC[C@]12O

>  <Ratio CC50/IC50>
>123.9

$$$$
>  <ITEM_SMILES>
CC(=O)[C@]1(O)CC[C@@]2(O)[C@]1(C)[C@H](OC(=O)/C=C(\C)C(C)C)C[C@@H]1[C@@]3(C)CC[C@H](OC(=O)/C=C/c4ccccc4C(F)(F)F)CC3=CC[C@]12O

>  <Ratio CC50/IC50>
352.9

$$$$
>  <ITEM_SMILES>
CCOc1cccc(/C=C/C(=O)O[C@H]2CC[C@@]3(C)C(=CC[C@]4(O)[C@@H]3C[C@@H](OC(=O)/C=C(\C)C(C)C)[C@@]3(C)[C@]4(O)CC[C@@]3(O)C(C)=O)C2)c1

>  <Ratio CC50/IC50>
>230.1

$$$$
>  <ITEM_SMILES>
COc1cc(/C=C/C(=O)O[C@H]2CC[C@@]3(C)C(=CC[C@]4(O)[C@@H]3C[C@@H](OC(=O)/C=C(\C)C(C)C)[C@@]3(C)[C@]4(O)CC[C@@]3(O)C(C)=O)C2)ccc1OC(C)=O

>  <Ratio CC50/IC50>
<2.3

$$$$
>  <ITEM_SMILES>
COc1cc(/C=C/C(=O)O[C@H]2CC[C@@]3(C)C(=CC[C@]4(O)[C@@H]3C[C@@H](OC(=O)/C=C(\C)C(C)C)[C@@]3(C)[C@]4(O)CC[C@@]3(O)C(C)=O)C2)cc(OC)c1

>  <Ratio CC50/IC50>
>87.4

$$$$
>  <ITEM_SMILES>
COc1cc(/C=C/C(=O)O[C@H]2CC[C@@]3(C)C(=CC[C@]4(O)[C@@H]3C[C@@H](OC(=O)/C=C(\C)C(C)C)[C@@]3(C)[C@]4(O)CC[C@@]3(O)C(C)=O)C2)cc(OC)c1OC

>  <Ratio CC50/IC50>
>746.6

$$$$
